Measured pEC50 of individual entries
# target entity: UniProt P20272
# Sequence (P20272 whole entry): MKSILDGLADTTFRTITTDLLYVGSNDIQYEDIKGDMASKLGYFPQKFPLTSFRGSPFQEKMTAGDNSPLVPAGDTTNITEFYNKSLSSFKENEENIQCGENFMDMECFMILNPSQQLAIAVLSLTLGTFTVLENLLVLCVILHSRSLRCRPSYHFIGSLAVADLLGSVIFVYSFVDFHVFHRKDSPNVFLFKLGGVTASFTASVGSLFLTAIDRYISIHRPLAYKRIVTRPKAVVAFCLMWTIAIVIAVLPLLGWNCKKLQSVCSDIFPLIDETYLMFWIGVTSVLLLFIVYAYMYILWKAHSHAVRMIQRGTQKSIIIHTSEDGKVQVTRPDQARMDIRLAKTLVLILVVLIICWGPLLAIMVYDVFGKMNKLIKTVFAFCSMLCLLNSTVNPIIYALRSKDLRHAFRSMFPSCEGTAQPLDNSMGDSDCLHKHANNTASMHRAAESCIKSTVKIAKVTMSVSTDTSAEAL
# test protocol: Antagonist activity at rat brain CB1 receptor assessed as inhibition of [35S]GTPgammaS binding
Recall that pEC50 is obtained by taking minus log10 of the concentration measured in molar.

Answered cases to consult:
Cc1c(C(=O)NCCCCCCCN(C)CCCCCCCN)nn(-c2ccc(Cl)cc2Cl)c1-c1ccc(Cl)cc1    5.36
Cc1c(C(=O)NCCCCCCCCCCCN(C)CCCCCCCCCCCN)nn(-c2ccc(Cl)cc2Cl)c1-c1ccc(Cl)cc1    5.06
Cc1c(C(=O)NCCCCCCCCCCCNCCCCCCCCCCCN)nn(-c2ccc(Cl)cc2Cl)c1-c1ccc(Cl)cc1    5.44
Cc1c(C(=O)NCCCCCN(C)CCCCCNC(=O)c2nn(-c3ccc(Cl)cc3Cl)c(-c3ccc(Cl)cc3)c2C)nn(-c2ccc(Cl)cc2Cl)c1-c1ccc(Cl)cc1    8.75
Cc1c(C(=O)NCCCCCCCCCCCN(C)CCCCCCCCCCCNC(=O)c2nn(-c3ccc(Cl)cc3Cl)c(-c3ccc(Cl)cc3)c2C)nn(-c2ccc(Cl)cc2Cl)c1-c1ccc(Cl)cc1    7.53

Noted for `Cc1c(C(=O)NCCNCCN)nn(-c2ccc(Cl)cc2Cl)c1-c1ccc(Cl)cc1` : its pEC50 reads 5.14

###

# target entity: Cannabinoid receptor 1 (Homo sapiens)
# test protocol: Antagonist activity at human brain CB1 receptor assessed as inhibition for [35S]GTPgammaS binding at 10000 nM
# Assay type: functional
One threshold, -30%, splits the recorded Emax values: lower ones are True, equal or higher ones are False.

# count of solved cases: 4
Cc1c(C(=O)NCCNCCNC(=O)c2nn(-c3ccc(Cl)cc3Cl)c(-c3ccc(Cl)cc3)c2C)nn(-c2ccc(Cl)cc2Cl)c1-c1ccc(Cl)cc1    False
Cc1c(C(=O)NCCCCCCCNCCCCCCCNC(=O)c2nn(-c3ccc(Cl)cc3Cl)c(-c3ccc(Cl)cc3)c2C)nn(-c2ccc(Cl)cc2Cl)c1-c1ccc(Cl)cc1    True
Cc1c(C(=O)NCCCCCCCCCN(C)CCCCCCCCCNC(=O)c2nn(-c3ccc(Cl)cc3Cl)c(-c3ccc(Cl)cc3)c2C)nn(-c2ccc(Cl)cc2Cl)c1-c1ccc(Cl)cc1    False
Cc1c(C(=O)NCCCCCCCN(C)CCCCCCCNC(=O)c2nn(-c3ccc(Cl)cc3Cl)c(-c3ccc(Cl)cc3)c2C)nn(-c2ccc(Cl)cc2Cl)c1-c1ccc(Cl)cc1    True

Given `Cc1c(C(=O)NCCCCCCCCCNCCCCCCCCCNC(=O)c2nn(-c3ccc(Cl)cc3Cl)c(-c3ccc(Cl)cc3)c2C)nn(-c2ccc(Cl)cc2Cl)c1-c1ccc(Cl)cc1` , is recorded Emax strictly lower than -30%? False

Consider `Cc1c(C(=O)NCCCCCN(C)CCCCCNC(=O)c2nn(-c3ccc(Cl)cc3Cl)c(-c3ccc(Cl)cc3)c2C)nn(-c2ccc(Cl)cc2Cl)c1-c1ccc(Cl)cc1` . Does its Emax lie strictly below -30%? False

Threshold test, Emax < -30%: `Cc1c(C(=O)NCCCNCCCNC(=O)c2nn(-c3ccc(Cl)cc3Cl)c(-c3ccc(Cl)cc3)c2C)nn(-c2ccc(Cl)cc2Cl)c1-c1ccc(Cl)cc1` True

I wonder whether `Cc1c(C(=O)NCCCCCNCCCCCNC(=O)c2nn(-c3ccc(Cl)cc3Cl)c(-c3ccc(Cl)cc3)c2C)nn(-c2ccc(Cl)cc2Cl)c1-c1ccc(Cl)cc1` has Emax below -30%. Can you tell? False

###

# target entity: Cannabinoid receptor 1 (Homo sapiens, UniProt P21554)
# Sequence (P21554 whole entry): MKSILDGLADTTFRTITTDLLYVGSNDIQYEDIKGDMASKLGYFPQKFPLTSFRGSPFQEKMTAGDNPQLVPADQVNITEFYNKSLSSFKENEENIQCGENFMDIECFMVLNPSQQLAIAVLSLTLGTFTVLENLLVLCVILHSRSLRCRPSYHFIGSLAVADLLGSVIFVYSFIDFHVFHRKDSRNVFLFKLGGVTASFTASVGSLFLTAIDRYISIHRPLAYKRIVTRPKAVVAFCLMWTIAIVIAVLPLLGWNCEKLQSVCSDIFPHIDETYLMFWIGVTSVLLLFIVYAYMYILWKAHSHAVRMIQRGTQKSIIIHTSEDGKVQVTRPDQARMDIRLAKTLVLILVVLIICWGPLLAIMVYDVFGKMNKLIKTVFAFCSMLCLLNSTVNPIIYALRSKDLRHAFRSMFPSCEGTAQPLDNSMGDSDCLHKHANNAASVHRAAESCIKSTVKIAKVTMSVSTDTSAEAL
# test protocol: Displacement of [3H]CP55940 from human CB1 receptor expressed in HEK293 cells
# Format: cell-based
quantity name: pKi
Just so you know, pKi here is -log10 of the concentration in molar units; reply with that number alone.

// worked examples, pKi included
Cc1c(C(=O)NCCCCCNCCCCCNC(=O)c2nn(-c3ccc(Cl)cc3Cl)c(-c3ccc(Cl)cc3)c2C)nn(-c2ccc(Cl)cc2Cl)c1-c1ccc(Cl)cc1    7.17
Cc1c(C(=O)NCCNCCNC(=O)c2nn(-c3ccc(Cl)cc3Cl)c(-c3ccc(Cl)cc3)c2C)nn(-c2ccc(Cl)cc2Cl)c1-c1ccc(Cl)cc1    6.64
Cc1c(C(=O)NCCCCCN(C)CCCCCN)nn(-c2ccc(Cl)cc2Cl)c1-c1ccc(Cl)cc1    6.79
Cc1c(C(=O)NCCCCCCCCCCCNCCCCCCCCCCCN)nn(-c2ccc(Cl)cc2Cl)c1-c1ccc(Cl)cc1    8.34
Cc1c(C(=O)NCCCCCCCN(C)CCCCCCCNC(=O)c2nn(-c3ccc(Cl)cc3Cl)c(-c3ccc(Cl)cc3)c2C)nn(-c2ccc(Cl)cc2Cl)c1-c1ccc(Cl)cc1    7.76

GET /value?item= `Cc1c(C(=O)NCCCCCCCCCNCCCCCCCCCNC(=O)c2nn(-c3ccc(Cl)cc3Cl)c(-c3ccc(Cl)cc3)c2C)nn(-c2ccc(Cl)cc2Cl)c1-c1ccc(Cl)cc1` &field=pKi returns 7.27

Record `Cc1c(C(=O)NCCCCCCCNCCCCCCCNC(=O)c2nn(-c3ccc(Cl)cc3Cl)c(-c3ccc(Cl)cc3)c2C)nn(-c2ccc(Cl)cc2Cl)c1-c1ccc(Cl)cc1` , field pKi: 7.91

Entry under test: `Cc1c(C(=O)NCCCCCCCCCN(C)CCCCCCCCCN)nn(-c2ccc(Cl)cc2Cl)c1-c1ccc(Cl)cc1` . Its pKi was 8.00

Record `Cc1c(C(=O)NCCCNCCCNC(=O)c2nn(-c3ccc(Cl)cc3Cl)c(-c3ccc(Cl)cc3)c2C)nn(-c2ccc(Cl)cc2Cl)c1-c1ccc(Cl)cc1` , field pKi: 6.76

Documented pKi of `Cc1c(C(=O)NCCCCCNCCCCCN)nn(-c2ccc(Cl)cc2Cl)c1-c1ccc(Cl)cc1` : 6.46

Cited source: ChEMBL document CHEMBL1268814
